Record form. Attribute: Plant response rating (scale of 0 to 100), Lambsquarters. Fill in for each entry.
System: lambsquarters
experiment description: Test C pre-/postemergence herbicide test
Assay type: in vivo, Chenopodium album
setup conditions: Preemergence, 250 g ai/ha
One number for each entry.

O=C1NCC(c2cccc(OC(F)F)c2)C1C(=O)Nc1ccccc1F (stereo not shown) ... 95
O=C1NCC(c2ccc(C(F)(F)F)cc2)C1C(=O)Nc1ccccc1F (stereo not shown) ... 100
O=C1NCC(c2ccc(F)c(C(F)(F)F)c2)C1C(=O)Nc1cccc(F)c1F (racemic) ... 98

Give one value of Plant response rating (scale of 0 to 100), Lambsquarters per listed molecule.
1. Cc1ccccc1NC(=O)C1C(=O)NCC1c1cccc(C(F)(F)F)c1 (racemic)
2. O=C1NCC(c2cccc(C(F)(F)F)c2)C1C(=O)Nc1ccc(F)c(F)c1F (stereo not shown)

[0, 85]

Give one value of Plant response rating (scale of 0 to 100), Lambsquarters per listed molecule.
1. O=C1NCC(c2cc(F)cc(F)c2)C1C(=O)Nc1ccccc1Cl (racemic)
2. O=C1NCC(c2ccc(OC(F)F)cc2)C1C(=O)Nc1cccc(F)c1F (racemic)

1. 10
2. 90

----------
System: soybean
experiment description: Test C pre-/postemergence herbicide test
Format: in vivo, Glycine max
setup conditions: Preemergence, 125 g ai/ha; scale 0 to 100 (0 no effect, 100 complete control)
Record form. Attribute: Plant response rating, Soybean. Fill in for each entry.
Give bare numbers.

Use the examples below as a reference point.
O=C1NCC(c2ccc(C(F)(F)F)cc2)C1C(=O)Nc1ccccc1F (stereo not drawn) [Compound 79] ... 0
O=C1NCC(c2ccc(C(F)(F)F)cc2)C1C(=O)Nc1cccc(F)c1F (stereo not drawn) ... 0
CN1CC(c2ccc(F)c(F)c2)C(C(=O)Nc2cccc(F)c2F)C1=O (stereo not drawn) ... 0
O=C1NCC(c2cc(F)cc(F)c2)C1C(=O)Nc1ccccc1Cl (racemic) ... 0
O=C1NCC(c2ccc(F)cc2)C1C(=O)Nc1ccc(F)c(F)c1F (racemic) ... 0

Give one value of Plant response rating, Soybean per listed molecule.
1. O=C1NCC(c2ccc(F)c(Cl)c2)C1C(=O)Nc1ccccc1F (stereo not drawn)
2. O=C1NCC(c2ccc(C(F)(F)F)cc2)C1C(=O)Nc1ccccc1F (stereo not drawn) [Compound 231]
3. O=C1NCC(c2cc(F)c(F)c(F)c2)C1C(=O)Nc1cccc(F)c1F (stereo not drawn)
4. O=C1NCC(c2cccc(OC(F)(F)F)c2)C1C(=O)Nc1ccccc1F (stereo not drawn)

[25, 0, 15, 0]

----------
Tested on: galium
experiment description: Test C pre-/postemergence herbicide test
Type: in vivo, Galium aparine
setup conditions: Postemergence, 62 g ai/ha; scale 0 (no effect) to 100 (complete control)
measurement label: Plant response rating, Galium
Give bare numbers.

Use the examples below as a reference point.
O=C1NC[C@H](c2cccc(C(F)(F)F)c2)[C@H]1C(=O)Nc1cccc(F)c1F [Compound 206] ... 75
O=C1NCC(c2cccc(OC(F)F)c2)C1C(=O)Nc1cccc(F)c1F (stereo not shown) [Compound 224] ... 45
O=C1NCC(c2cccc(Br)c2)C1C(=O)Nc1ccc(F)c(F)c1F (stereo not shown) [Compound 310] ... 50

The record that follows has no Plant response rating, Galium shown yet.
Consider the compound shown here: O=C1NCC(c2ccc(F)c(F)c2)C1C(=O)Nc1ccc(F)c(F)c1F (stereo not shown) [Compound 346] What is its recorded Plant response rating, Galium?
25

----------
Test system: ryegrass, Italian
experiment description: Test A pre-/postemergence herbicide test
Format: in vivo, Lolium multiflorum
setup conditions: Postemergence, 125 g ai/ha; visual rating on 0 to 100 scale (0 no effect, 100 complete control), approx. 10 days
Record form. Attribute: Plant response rating, Ryegrass, Italian. Fill in for each entry.
Numbers only.

Use the examples below as a reference point.
O=C1NCC(c2cccc(Br)c2)C1C(=O)Nc1ccccc1Cl (stereo not drawn) ... 0
CSc1cccc(C2CNC(=O)C2C(=O)Nc2ccc(F)c(F)c2F)c1 (stereo not drawn) ... 0
CSc1cccc(C2CNC(=O)C2C(=O)Nc2ccccc2F)c1 (stereo not drawn) ... 0
CN1CC(c2cccc(C(F)(F)F)c2)C(C(=O)Nc2cccc(F)c2F)C1=O (stereo not drawn) ... 60
CCN1CC(c2ccc(C(F)(F)F)cc2)C(C(=O)Nc2cccc(F)c2F)C1=O (stereo not drawn) ... 0

Give one value of Plant response rating, Ryegrass, Italian per listed molecule.
1. O=C1NCC(c2cccc(Br)c2)C1C(=O)Nc1ccc(F)c(F)c1F (stereo not drawn)
2. CN1CC(c2ccc(C(F)(F)F)cc2)C(C(=O)Nc2cccc(F)c2F)C1=O (stereo not drawn)
3. O=C1NCC(c2ccc(F)c(F)c2)C1C(=O)Nc1ccc(F)c(F)c1F (stereo not drawn)
4. O=C1NCC(c2cccc(C(F)(F)F)c2)C1C(=O)Nc1ccc(F)c(F)c1F (stereo not drawn)

30
50
20
50

----------
Tested on: giant foxtail
experiment description: Test A pre-/postemergence herbicide test
Format: in vivo, Setaria faberii
setup conditions: Postemergence, 125 g ai/ha; 0 to 100 scale, 0 is no effect, 100 is complete control
measurement label: Plant response rating, Foxtail, Giant
Numbers only.

Use the examples below as a reference point.
COc1ccc(C2CNC(=O)C2C(=O)Nc2cccc(F)c2F)cc1F (racemic) ... 10
O=C1NCC(c2ccc(C(F)(F)F)cc2F)C1C(=O)Nc1cccc(F)c1F (racemic) ... 80

Give one value of Plant response rating, Foxtail, Giant per listed molecule.
1. CCCN1CC(c2ccc(C(F)(F)F)cc2)C(C(=O)Nc2ccccc2F)C1=O (stereo not shown)
2. O=C1NCC(c2ccc(F)c(F)c2)C1C(=O)Nc1cccc(C(F)(F)F)n1 (racemic)
3. O=C1NCC(c2cccc(C(F)F)c2)C1C(=O)Nc1ccccc1C(F)(F)F (racemic)
4. O=C1NCC(c2cccc(C(F)F)c2)C1C(=O)Nc1ccccc1F (racemic)
5. O=C1NCC(c2cc(F)cc(F)c2)C1C(=O)Nc1ccccc1Cl (racemic)

0
20
60
50
70

----------
Record form. Attribute: Plant response rating, Oilseed Rape. Fill in for each entry.
Tested on: oilseed rape
experiment description: Test D pre-/postemergence herbicide test
Assay type: in vivo, Brassica napus
setup conditions: Preemergence, 125 g ai/ha; scale 0 to 100 (0 no effect, 100 complete control)
Numbers only.

O=C1NCC(c2ccc(C(F)(F)F)cc2)C1C(=O)Nc1cccc(F)c1F (racemic) [Compound 202] ... 45
O=C1NC[C@H](c2cccc(C(F)(F)F)c2)[C@H]1C(=O)Nc1cccc(F)c1F [Compound 206] ... 0
O=C1NCC(c2cc(F)c(F)cc2F)C1C(=O)Nc1cccc(F)c1F (stereo not shown) [Compound 50] ... 0

The record that follows has no Plant response rating, Oilseed Rape shown yet.
Consider the molecule shown here: O=C1NCC(c2ccc(F)c(F)c2)C1C(=O)Nc1ccccc1C(F)(F)F (racemic) [Compound 6] What is its recorded Plant response rating, Oilseed Rape?
10

----------
Test system: galium
experiment description: Test C pre-/postemergence herbicide test
Assay type: in vivo, Galium aparine
setup conditions: Preemergence, 31 g ai/ha; scale 0 to 100, 0 is no effect and 100 is complete control
measurement label: Galium plant response rating
Give bare numbers.

Use the examples below as a reference point.
O=C1NCC(c2ccc(C(F)(F)F)cc2)C1C(=O)Nc1cccc(F)c1F (stereo not drawn) ... 5
O=C1NC[C@H](c2cccc(C(F)(F)F)c2)[C@H]1C(=O)Nc1cccc(F)c1F ... 20

Give one value of Galium plant response rating per listed molecule.
1. O=C1NCC(c2ccc(Cl)cc2)C1C(=O)Nc1cccc(F)c1F (stereo not drawn)
2. Cc1ccccc1NC(=O)C1C(=O)NCC1c1cccc(C(F)(F)F)c1 (racemic)

[0, 60]

Give one value of Galium plant response rating per listed molecule.
1. O=C1NCC(c2cccc(OC(F)F)c2)C1C(=O)Nc1cccc(F)c1F (stereo not drawn)
2. O=C1NCC(c2cc(F)cc(F)c2)C1C(=O)Nc1ccccc1Cl (racemic)

[0, 0]

----------
Record form. Attribute: Plant response rating (scale of 0 to 100), Pigweed. Fill in for each entry.
System: pigweed
experiment description: Test C pre-/postemergence herbicide test
Assay type: in vivo, Amaranthus retroflexus
setup conditions: Preemergence, 250 g ai/ha
Give bare numbers.

Use the examples below as a reference point.
O=C1NCC(c2ccc(C(F)(F)F)cc2)C1C(=O)Nc1ccccc1F (stereo not shown) [Compound 79] ... 65
O=C1NCC(c2cc(F)cc(F)c2)C1C(=O)Nc1ccccc1Cl (racemic) [Compound 280] ... 20
O=C1NC[C@H](c2cccc(C(F)(F)F)c2)[C@H]1C(=O)Nc1cccc(F)c1F [Compound 206] ... 85
O=C1NC[C@H](c2cccc(C(F)(F)F)c2)[C@H]1C(=O)Nc1ccccc1F [Compound 204] ... 75
O=C1NCC(c2cccc(OC(F)(F)F)c2)C1C(=O)Nc1ccccc1F (stereo not shown) [Compound 69] ... 25
O=C1NCC(c2ccc(F)c(F)c2)C1C(=O)Nc1cccc(F)c1F (racemic) [Compound 101] ... 85
CN1CC(c2ccc(F)c(F)c2)C(C(=O)Nc2cccc(F)c2F)C1=O (stereo not shown) [Compound 303] ... 80
O=C1NCC(c2ccc(C(F)(F)F)cc2)C1C(=O)Nc1ccccc1F (stereo not shown) [Compound 231] ... 90
Cc1ccccc1NC(=O)C1C(=O)NCC1c1cccc(C(F)(F)F)c1 (racemic) [Compound 109] ... 20

Reported Plant response rating (scale of 0 to 100), Pigweed for pigweed, given O=C1NCC(c2ccc(F)cc2)C1C(=O)Nc1ccc(F)c(F)c1F (racemic) [Compound 120] ?
80
